- TARGET_OF_ASSAY: GSPT1 (Homo sapiens, UniProt P15170+Q96SW2)
- Sequence (P15170 whole entry, the tested form may be a part): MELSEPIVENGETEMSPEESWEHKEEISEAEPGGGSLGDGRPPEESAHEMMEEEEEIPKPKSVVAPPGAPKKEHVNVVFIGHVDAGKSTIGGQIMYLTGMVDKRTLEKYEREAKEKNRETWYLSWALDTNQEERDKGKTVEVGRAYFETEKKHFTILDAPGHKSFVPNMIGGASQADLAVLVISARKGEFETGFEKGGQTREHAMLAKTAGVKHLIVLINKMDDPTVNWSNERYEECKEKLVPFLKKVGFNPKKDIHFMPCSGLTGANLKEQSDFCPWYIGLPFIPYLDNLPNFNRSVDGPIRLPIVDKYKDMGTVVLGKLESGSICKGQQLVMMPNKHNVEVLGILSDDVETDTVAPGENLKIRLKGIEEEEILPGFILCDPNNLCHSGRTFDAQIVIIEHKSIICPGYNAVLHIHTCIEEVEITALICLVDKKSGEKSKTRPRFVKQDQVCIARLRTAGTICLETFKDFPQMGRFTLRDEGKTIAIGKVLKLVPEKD
- Sequence (Q96SW2 whole entry, the tested form may be a part): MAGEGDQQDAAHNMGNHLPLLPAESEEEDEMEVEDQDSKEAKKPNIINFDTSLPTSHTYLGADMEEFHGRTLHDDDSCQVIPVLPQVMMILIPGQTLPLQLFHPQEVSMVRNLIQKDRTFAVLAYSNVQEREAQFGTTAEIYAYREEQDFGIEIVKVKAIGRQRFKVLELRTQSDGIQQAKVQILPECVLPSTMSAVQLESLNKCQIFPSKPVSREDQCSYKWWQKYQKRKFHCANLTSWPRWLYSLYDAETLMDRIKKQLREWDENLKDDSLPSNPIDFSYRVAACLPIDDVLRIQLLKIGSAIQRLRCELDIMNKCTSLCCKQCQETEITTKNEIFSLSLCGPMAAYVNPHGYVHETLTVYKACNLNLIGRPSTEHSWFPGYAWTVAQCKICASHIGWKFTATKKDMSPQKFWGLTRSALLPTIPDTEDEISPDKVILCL
- Sequence (Q16531 whole entry partner, the tested form may be a part): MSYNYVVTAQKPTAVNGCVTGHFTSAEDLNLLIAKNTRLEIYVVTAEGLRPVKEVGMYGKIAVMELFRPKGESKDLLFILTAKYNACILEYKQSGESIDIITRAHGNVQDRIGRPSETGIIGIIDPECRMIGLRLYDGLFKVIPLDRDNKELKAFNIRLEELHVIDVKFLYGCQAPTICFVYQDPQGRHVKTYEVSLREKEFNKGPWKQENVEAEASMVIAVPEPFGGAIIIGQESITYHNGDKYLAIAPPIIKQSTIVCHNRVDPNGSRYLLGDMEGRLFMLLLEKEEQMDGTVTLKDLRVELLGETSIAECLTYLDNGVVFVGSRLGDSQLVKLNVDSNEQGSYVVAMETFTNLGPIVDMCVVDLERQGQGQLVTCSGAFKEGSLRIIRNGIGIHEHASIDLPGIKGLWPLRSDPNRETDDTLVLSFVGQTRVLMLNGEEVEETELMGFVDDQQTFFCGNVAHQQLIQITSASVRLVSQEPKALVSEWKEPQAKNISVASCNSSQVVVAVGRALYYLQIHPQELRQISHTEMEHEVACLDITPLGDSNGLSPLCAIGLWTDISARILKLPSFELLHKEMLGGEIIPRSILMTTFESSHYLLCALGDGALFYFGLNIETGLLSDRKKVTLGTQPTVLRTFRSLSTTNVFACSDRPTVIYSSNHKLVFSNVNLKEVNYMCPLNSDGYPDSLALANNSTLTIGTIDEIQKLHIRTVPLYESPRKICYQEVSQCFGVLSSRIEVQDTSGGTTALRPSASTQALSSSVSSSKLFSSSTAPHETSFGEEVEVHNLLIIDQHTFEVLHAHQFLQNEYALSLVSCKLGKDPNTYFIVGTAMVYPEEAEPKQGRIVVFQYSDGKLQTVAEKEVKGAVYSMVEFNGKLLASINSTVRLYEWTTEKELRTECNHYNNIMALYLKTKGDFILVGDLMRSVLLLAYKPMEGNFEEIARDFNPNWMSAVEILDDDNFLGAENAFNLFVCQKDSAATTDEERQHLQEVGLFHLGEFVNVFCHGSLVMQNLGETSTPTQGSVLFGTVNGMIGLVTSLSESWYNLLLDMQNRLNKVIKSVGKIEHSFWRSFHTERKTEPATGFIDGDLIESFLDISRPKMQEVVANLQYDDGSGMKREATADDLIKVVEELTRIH
- EXPERIMENT_SUMMARY: Cellular degradation assay, eGFP-GSPT1 fusion with mCherry reporter in Flp-In 293 cells
- Assay type: cell-based
- Design: expressed in transfected cells; host or cells: Flp-In 293
- EXPERIMENTAL_CONTEXT: compound concentration 2.00E−05; 5 h incubation; n=1
Reported GSPT1 GFP/RFP Relative Abundance is given for each of the following compounds.
QUANTITY_NAME: GSPT1 GFP/RFP Relative Abundance

{"COMPOUND": "CN(C)C(=O)c1ccc(NC2=CC(=O)N(C3CCC(=O)NC3=O)C2=O)cc1 (centres unmarked) [Compound 34]", "DATA_VALUE": 0.867}
{"COMPOUND": "Cc1ccc(NC(=O)CCc2cccc(NC3=CC(=O)N(C4CCC(=O)NC4=O)C3=O)c2)cc1Cl (centres unmarked) [Compound 53]", "DATA_VALUE": 0.232}
{"COMPOUND": "O=C1CCC(N2C(=O)C=C(Nc3cccc(CNC(=O)Nc4ccc(Cl)c(Cl)c4)c3)C2=O)C(=O)N1 (centres unmarked) [Compound 59]", "DATA_VALUE": 0.247}
{"COMPOUND": "CCOC(=O)CNC1=CC(=O)N(C2CCC(=O)NC2=O)C1=O (centres unmarked) [Compound 16]", "DATA_VALUE": 0.978}
{"COMPOUND": "Cc1ccc(NC(=O)NC(C)c2cccc(NC3=CC(=O)N(C4CCC(=O)NC4=O)C3=O)c2)cc1Cl (centres unmarked) [Compound 54]", "DATA_VALUE": 0.420}
{"COMPOUND": "CN(C)C(=O)c1cccc(NC2=CC(=O)N(C3CCC(=O)NC3=O)C2=O)c1 (centres unmarked) [Compound 33]", "DATA_VALUE": 0.944}
{"COMPOUND": "Cc1ccc(NC(=O)NCCCNC2=CC(=O)N(C3CCC(=O)NC3=O)C2=O)cc1Cl (centres unmarked) [Compound 47]", "DATA_VALUE": 0.034}
{"COMPOUND": "O=C1CCC(N2C(=O)C=C(Nc3cccc(-c4nnn[nH]4)c3)C2=O)C(=O)N1 (centres unmarked) [Compound 23]", "DATA_VALUE": 0.976}
